# melting point per record follows

These solved cases illustrate the format of a correct answer.
Ask: Would you kindly share the measured melting point for C[C@H](CCC(=O)O)C1CCC2C3CC[C@@H]4C[C@H](NS(=O)(=O)c5cc6ccccc6s5)CC[C@]4(C)C3CC[C@@]21C (stereo partly drawn) ?
Reply: 132 to 134 °C

Ask: Here is the next molecule: C[C@H](CCC(=O)OCCOCCOCCN=[N+]=[N-])C1CCC2C3CC[C@@H]4C[C@H](NC(=O)[C@H](CCC(=O)O)Nc5ccc([N+](=O)[O-])c6nonc56)CC[C@]4(C)C3CC[C@@]21C (stereo partly drawn)
Reply: 77 to 78 °C

Further cases:
Ask: Would you kindly share the measured melting point for C[C@H](CCC(=O)OCCOCCOCCN=[N+]=[N-])C1CCC2C3CC[C@@H]4C[C@H](NC(=O)[C@H](CCCCN)Nc5ccc([N+](=O)[O-])c6nonc56)CC[C@]4(C)C3CC[C@@]21C (stereo partly drawn) ?
Reply: 84 to 85 °C

---

# TARGET_OR_SYSTEM: α2,6(N)-sialyltransferases ST6GALI (Homo sapiens, UniProt P15907)
# Construct: purchased RnDSystems.com (R&D Systems)
# Sequence (P15907 1-406): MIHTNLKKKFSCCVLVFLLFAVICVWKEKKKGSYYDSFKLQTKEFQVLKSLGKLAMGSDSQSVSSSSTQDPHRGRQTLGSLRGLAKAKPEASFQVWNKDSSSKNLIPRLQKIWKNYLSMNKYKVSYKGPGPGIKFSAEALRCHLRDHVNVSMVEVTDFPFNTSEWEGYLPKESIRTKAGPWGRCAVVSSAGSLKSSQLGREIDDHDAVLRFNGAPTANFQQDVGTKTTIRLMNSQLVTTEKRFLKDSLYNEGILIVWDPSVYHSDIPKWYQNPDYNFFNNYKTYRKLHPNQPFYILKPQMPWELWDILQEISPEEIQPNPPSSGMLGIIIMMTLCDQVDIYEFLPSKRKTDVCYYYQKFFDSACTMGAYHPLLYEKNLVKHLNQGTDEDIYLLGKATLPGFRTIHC
# ASSAY_EXPLANATION: Sialyltransferase inhibition assay, ST6GALI (reverse-phase HPLC)
# Type: biochemical
# CONDITION_INFO: IC50 (μM) ST6GALI, α2,6-N-link
# IC50 per record follows
Field: numeric (µM). Do not append units.

Ask: Would you kindly share the measured IC50 for C[C@H](CCC(=O)OCCOCCN=[N+]=[N-])C1CC[C@H]2[C@@H]3CC[C@@H]4C[C@H](OC(=O)[C@H](CC(=O)O)NC(=O)c5ccc([N+](=O)[O-])cc5)CC[C@]4(C)[C@H]3CC[C@]12C (some centres unmarked) ?
Reply: 6.72

For the next question, use this compound.
Ask: Would you kindly share the measured IC50 for COc1ccc2c(CC(=O)N[C@@H](CC(=O)O)C(=O)O[C@@H]3CC[C@@]4(C)[C@H](CC[C@@H]5[C@@H]4CC[C@]4(C)C([C@H](C)CCC(=O)OCCOCCOCCOCCN=[N+]=[N-])CC[C@@H]54)C3)cc(=O)oc2c1 (some centres unmarked) ?
Reply: 4.95

---

EXPERIMENTAL_ENDPOINT: melting point

Ask: Would you kindly share the measured melting point for C[C@H](CCC(=O)O)C1CCC2C3CC[C@@H]4C[C@H](Nc5ccc6ccccc6n5)CC[C@]4(C)C3CC[C@@]21C (stereo partly shown) ?
Reply: 140 to 142 °C
